I'd appreciate it if you could supply percent inhibition of viability values for the items below.
# System: KHYG-1 (IL-2 2.5 ng/mL);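 note: normalised to DMSO-only wells as negative and benzethonium chloride as positive control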
# experimental.details: percent inhibition of viability; higher = more inhibition
# study.conditions: 72 h; 1 nM
State the result as a value with its unit after it.

Consider the reported percent inhibition of viability for these compounds:
- FC(F)(F)c1ccc(/C=C/c2nc(COc3ccc(CCCCn4ccnn4)cc3)co2)cc1 [Mubritinib] (max concentration tested 1000 nM): -7.85%
- COc1cc(Nc2ncc(F)c(Nc3ccc4c(n3)NC(=O)C(C)(C)O4)n2)cc(OC)c1OC [Tamatinib] (max concentration tested 10000 nM): 1.54%
- C=CC(=O)Nc1cc2c(Nc3ccc(F)c(Cl)c3)ncnc2cc1OCCCN1CCOCC1 [Canertinib] (max concentration tested 10000 nM): -9.72%
- CC[C@]1(O)C[C@@H]2CN(CCc3c([nH]c4ccccc34)[C@@](C(=O)OC)(c3cc4c(cc3OC)N(C)[C@H]3[C@@](O)(C(=O)OC)[C@H](OC(C)=O)[C@]5(CC)C=CCN6CC[C@]43[C@@H]65)C2)C1 [Vinblastine] (max concentration tested 1000 nM): -0.24%

Let us move to another entry and its percent inhibition of viability.
# get_value(readout='percent inhibition of viability', item= C[C@H]1C[C@@H]2[C@H]([C@@H](O)C[C@@]3(C)[C@H]2CC[C@]3(O)C(=O)CO)[C@@]2(C)C=CC(=O)C=C12 [Methylprednisolone] (max concentration tested 10000 nM) ) -4.65%
